Where do these numbers come from? They come from patent US4383993A.

- method.description: bioavailability of progesterone in rats after intravenous, nasal and intraduodenal/oral administration
- Assay type: in vivo, Sprague-Dawley male rats
- run.conditions: rat, in vivo, iv, AUC ratio Nasal/IV

>  <compound>
CC(=O)[C@H]1CC[C@H]2[C@@H]3CCC4=CC(=O)CC[C@]4(C)[C@H]3CC[C@]12C

>  <bioavailability [%]>
103

$$$$

---

- method.description: bioavailability of progesterone in rats after intravenous, nasal and intraduodenal/oral administration
- Assay type: in vivo, Sprague-Dawley male rats
- run.conditions: rat, in vivo, oral bioavailability relative to equivalent IV dose
readout.name: bioavailability (%)

>  <compound>
CC(=O)[C@H]1CC[C@H]2[C@@H]3CCC4=CC(=O)CC[C@]4(C)[C@H]3CC[C@]12C [progesterone, pregn-4-ene-3,20-dione]

>  <unit.name>
%

>  <result>
1.2

$$$$

---

- method.description: in vivo
- Format: in vivo, Sprague-Dawley male rats
- run.conditions: rat, in vivo, po, E2 bioavailability relative to corresponding IV doses
readout.name: bioavailability

>  <compound>
C[C@]12CC[C@@H]3c4ccc(O)cc4CC[C@H]3[C@@H]1CC[C@@H]2O [17 β-estradiol, estra-1,3,5(10)-triene-3,17 β-diol]

>  <readout.name>
bioavailability

>  <result>
3.1 to 5%

$$$$

---

- method.description: in vivo
- Type: in vivo, Sprague-Dawley male rats
- run.conditions: rat, in vivo, po, E2 AUC ratio vs. IV
- Method: Sprague-Dawley male rats, each weighing about 270 grams, were used in the progesterone study. […] Blood levels of progesterone were determined by thin layer chromotography. […]

>  <compound>
C[C@]12CC[C@@H]3c4ccc(O)cc4CC[C@H]3[C@@H]1CC[C@@H]2O

>  <unit.name>
%

>  <bioavailability>
3.8

$$$$

---

- method.description: bioavailability of progesterone in rats after intravenous, nasal and intraduodenal/oral administration
- Assay type: in vivo, Sprague-Dawley male rats
- run.conditions: rat, in vivo

>  <compound>
CC(=O)[C@H]1CC[C@H]2[C@@H]3CCC4=CC(=O)CC[C@]4(C)[C@H]3CC[C@]12C

>  <Tmax>
< 7 min

$$$$
